Values were extracted from patent US10604512B2.

# System: IL-6
# Protocol Details: Inhibition of IL-6 in LPS-stimulated THP-1 human monocyte cells (HTRF)
# Format: cell-based
# Conditions: IL-6 inhibition, LPS-stimulated THP-1 cells, HTRF
Readout Kind: pEC50
One number for each entry, as −log10 of the molar value.

Here are 5 compounds together with their reported answers.
> print(dat)
                                   compound  tested.target  reported.value
1  Fc1cccc(-c2cccc3[nH]c(-c4n[nH]c5ccc(-c6cncc(CN7CCC(F)(F)C7)c6)cc45)cc23)c1 [Compound 26]           IL-6            5.91
2  Cc1ccncc1-c1ccc2[nH]nc(-c3cc4c(-c5ccccn5)cccc4[nH]3)c2c1 [Compound 145]           IL-6            5.32
3  COc1cncc(-c2ccc3[nH]nc(-c4cc5c(-c6ccsc6)cccc5[nH]4)c3c2)c1 [Compound 704]           IL-6            6.61
4  CN(C)Cc1cncc(-c2ccc3[nH]nc(-c4cc5c(-c6cccs6)cccc5[nH]4)c3c2)c1 [Compound 349]           IL-6            6.63
5  O=C(Cc1ccccc1)Nc1cncc(-c2ccc3[nH]nc(-c4cc5c(-c6ccoc6)cccc5[nH]4)c3c2)c1 [Compound 318]           IL-6            6.52

Batch request: pEC50 for each of the following compounds.
1. c1ccc2[nH]c(-c3n[nH]c4ccc(-c5cncc(CN6CCCCC6)c5)cc34)cc2c1 [Compound 267]
2. CN(C)c1cncc(-c2ccc3[nH]nc(-c4cc5c(-c6ccoc6)cccc5[nH]4)c3c2)c1 [Compound 315]
3. CS(=O)(=O)NCc1cc(F)cc(-c2cccc3[nH]c(-c4n[nH]c5ccc(-c6cncc(CN7CCCCC7)c6)cc45)cc23)c1 [Compound 491]
4. CC(C)CC(=O)Nc1cncc(-c2ccc3[nH]nc(-c4cc5c(-c6ccncc6)cccc5[nH]4)c3c2)c1 [Compound 114]
5. c1ccc(-c2cccc3[nH]c(-c4n[nH]c5ccc(-c6ccncc6)cc45)cc23)nc1 [Compound 158]

Marked response:
[5.76, 6.70, 5.26, 6.51, 5.80]

---

# Test system: IL-6
# Protocol Details: Inhibition of IL-6 in LPS-stimulated THP-1 human monocyte cells (HTRF)
# Type: cell-based
# Conditions: THP-1, printed beside >10 μM EC50, top concentration 10 μM, meaning not given, read-out: percentage in parentheses after EC50 >10
Readout Kind: inhibition at 10 µM (%)
Numbers only, in %.

Batch request: inhibition at 10 µM for each of the following molecules.
1. O=C(Nc1cncc(-c2ccc3[nH]nc(-c4cc5ccccc5[nH]4)c3c2)c1)C1CCCCC1
2. CCC(=O)Nc1cncc(-c2ccc3[nH]nc(-c4cc5c(N6CCCCC6)cccc5[nH]4)c3c2)c1
3. CC(C)C(=O)Nc1cncc(-c2ccc3[nH]nc(-c4cc5c(-c6ccsc6)cccc5[nH]4)c3c2)c1

Marked response:
[32.5, 41.7, 48.3]

---

Task for the reader: assign each of the following compounds its reported pEC50.
# Test system: IL-6
# Protocol Details: Inhibition of IL-6 in LPS-stimulated THP-1 human monocyte cells (HTRF)
# Type: cell-based
# Conditions: IL-6 inhibition, LPS-stimulated THP-1 cells, HTRF
Answers are plain numbers, as −log10 of the molar value.

Here are 3 compounds together with their reported answers.
> print(dat)
                    structure.smiles.string  reported.value
1  CN(C)CCNc1cc(F)cc(-c2cccc3[nH]c(-c4n[nH]c5ccc(-c6cncc(NC(=O)C7CCC7)c6)cc45)cc23)c1            7.57
2  CCNCc1cncc(-c2ccc3[nH]nc(-c4cc5c(-c6ccccc6F)cccc5[nH]4)c3c2)c1            5.00
3  c1cncc(-c2ccc3[nH]nc(-c4cc5c(-c6cccnc6)cccc5[nH]4)c3c2)c1            7.64

Batch request: pEC50 for each of the following compounds.
1. O=C(Nc1cncc(-c2ccc3[nH]nc(-c4cc5c(-c6ccncc6)cccc5[nH]4)c3c2)c1)C1CCCCC1
2. O=C(Nc1cncc(-c2ccc3[nH]nc(-c4cc5c(-c6cccs6)cccc5[nH]4)c3c2)c1)C1CCCC1

Marked response:
[5.00, 6.14]

---

Task for the reader: assign each of the following compounds its reported EC50.
# Test system: IL-6
# Protocol Details: Inhibition of IL-6 in LPS-stimulated THP-1 human monocyte cells (HTRF)
# Assay type: cell-based
# Conditions: IL-6 inhibition, LPS-stimulated THP-1 cells, HTRF
Numbers only, in nM.

Here are 5 compounds together with their reported answers.
> print(dat)
                    structure.smiles.string  reported.value
1  CCCCC(=O)Nc1cncc(-c2ccc3[nH]nc(-c4cc5c(-c6ccccc6F)cccc5[nH]4)c3c2)c1            1000
2  CC(C)C(=O)Nc1cncc(-c2ccc3[nH]nc(-c4cc5c(-c6cccnc6)cccc5[nH]4)c3c2)c1              34
3  CS(=O)(=O)NCc1cc(F)cc(-c2cccc3[nH]c(-c4n[nH]c5ccc(-c6ccncc6)cc45)cc23)c1            2330
4  CC(C)(C)C(=O)Nc1cncc(-c2ccc3[nH]nc(-c4cc5c(-c6ccc(F)cc6)cccc5[nH]4)c3c2)c1             277
5  Cc1ccncc1-c1ccc2[nH]nc(-c3cc4c(-c5cc(F)cc(CNS(C)(=O)=O)c5)cccc4[nH]3)c2c1             122

// below: EC50 requested for another compound
Exam item: Quick check: EC50 of "Fc1cccc(-c2cccc3[nH]c(-c4n[nH]c5ccc(C6CCNCC6)cc45)cc23)c1" ?
Marked response: 2800

---

# Tested on: SW480 colon cancer cells
# Protocol Details: Cell viability assay (CellTiter-Blue) in SW480 colon cancer cells
# Type: cell-based
# Conditions: Homo sapiens, 96 h, four days, CellTiter-Blue
Readout Kind: EC50 (µM)
Numbers only, in µM.

> print(dat)
                    structure.smiles.string  reported.value
1  CN(C)CCNc1cc(F)cc(-c2cccc3[nH]c(-c4n[nH]c5ccc(-c6cnn(C)c6)cc45)cc23)c1           0.089
2  Fc1cccc(-c2cccc3[nH]c(-c4n[nH]c5ccc(C6CCNCC6)cc45)cc23)c1            3.84

Batch request: EC50 for each of the following molecules.
1. CS(=O)(=O)NCc1cc(F)cc(-c2cccc3[nH]c(-c4n[nH]c5ccc(-c6cncc(CN7CCCCC7)c6)cc45)cc23)c1
2. CC(C)Nc1cncc(-c2ccc3[nH]nc(-c4cc5c(N6CCN(C)CC6)cccc5[nH]4)c3c2)c1

Marked response:
1: 1.49; 2: 0.677

Batch request: EC50 for each of the following molecules.
1. CS(=O)(=O)NCc1cc(F)cc(-c2cccc3[nH]c(-c4n[nH]c5ccc(-c6cncnc6)cc45)cc23)c1
2. CN(C)CCNc1cc(F)cc(-c2cccc3[nH]c(-c4n[nH]c5ccc(-c6cncc(NC(=O)C7CCCC7)c6)cc45)cc23)c1

Marked response:
[3.17, 0.166]

---

# Test system: IL-6
# Protocol Details: Inhibition of IL-6 in LPS-stimulated THP-1 human monocyte cells (HTRF)
# Format: cell-based
# Conditions: IL-6 inhibition, LPS-stimulated THP-1 cells, HTRF
# Procedure: Human monocyte cell line (THP-1 cells; Catalog # TIB-202, ATCC, Manassas, Va.) were cultured in Roswell Park Memorial Institute (RPMI) 1640 Medium (Catalog #21870-100, Buffalo, N.Y.) with 1% L-glutamine, 1% HEPES, 1% Sodium Pyruvate, 2% Sodium Bicarbonate supplemented with 100 units/mL penicillin, 50 μg/mL streptomycin, 2-mercaptoethanol (0.05 mM) [basal medium] and 10% fetal bovine serum (Catalog #16140089, Life Technologies, Carlsbad, Calif.) at 37° C. and 5% CO2. […]
Readout Kind: EC50

Here are 2 compounds together with their reported answers.
> print(dat)
                    structure.smiles.string  readout.kind  reported.value
1  CC(C)CC(=O)Nc1cncc(-c2ccc3[nH]nc(-c4cc5c(-c6ccc(F)cc6)cccc5[nH]4)c3c2)c1          EC50         > 10 µM
2  CN1CCN(c2cccc3[nH]c(-c4n[nH]c5ccc(-c6cncc(NC(=O)CC7CCNCC7)c6)cc45)cc23)CC1          EC50         > 10 µM

Exam item: Value wanted: EC50 (IL-6) of entry "O=C(Cc1ccccc1)Nc1cncc(-c2ccc3[nH]nc(-c4cc5ccccc5[nH]4)c3c2)c1"
Marked response: > 10 µM

---

# Test system: IL-6
# Protocol Details: Inhibition of IL-6 in LPS-stimulated THP-1 human monocyte cells (HTRF)
# Assay type: cell-based
# Conditions: IL-6 inhibition, LPS-stimulated THP-1 cells, HTRF
Readout Kind: EC50

Here are 2 compounds together with their reported answers.
> print(dat)
                                   compound  readout.kind  reported.value
1  O=C(Nc1cncc(-c2ccc3[nH]nc(-c4cc5c(-c6ccsc6)cccc5[nH]4)c3c2)c1)C1CCCCC1 [Compound 303]          EC50         > 10 µM
2  CC(C)C(=O)Nc1cncc(-c2ccc3[nH]nc(-c4cc5c(-c6ccsc6)cccc5[nH]4)c3c2)c1 [Compound 289]          EC50         > 10 µM

// below: EC50 requested for another compound
Exam item: Quick check: EC50 of O=C(Nc1cncc(-c2ccc3[nH]nc(-c4cc5ccccc5[nH]4)c3c2)c1)C1CCC1 [Compound 273] ?
Marked response: > 10 µM
